Every entry's value here was drawn from BindingDB's records for patent WO2022070069.

Biological target: Dihydroorotate dehydrogenase (quinone), mitochondrial (Homo sapiens, UniProt Q02127)
Sequence (Q02127 whole entry): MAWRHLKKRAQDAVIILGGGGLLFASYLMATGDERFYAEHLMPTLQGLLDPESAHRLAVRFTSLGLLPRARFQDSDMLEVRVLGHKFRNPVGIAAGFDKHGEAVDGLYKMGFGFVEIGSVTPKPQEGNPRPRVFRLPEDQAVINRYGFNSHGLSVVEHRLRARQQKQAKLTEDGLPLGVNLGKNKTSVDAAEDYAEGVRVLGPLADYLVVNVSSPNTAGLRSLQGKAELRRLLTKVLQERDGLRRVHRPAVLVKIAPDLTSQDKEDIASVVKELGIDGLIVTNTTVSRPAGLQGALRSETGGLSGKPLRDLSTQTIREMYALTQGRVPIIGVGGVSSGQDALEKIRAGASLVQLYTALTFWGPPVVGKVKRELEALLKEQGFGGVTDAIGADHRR
Assay: DHODH enzymatic assay
Procedure: To detect DHODH enzyme activities, dichloroindophenol (DCIP) is added as the final electron acceptor in the assay. […] DCIP solutions are blue, with an intense absorbance around 600 nm, but becomes colorless upon reduction (J. Biol. Chem. (1986) 261, 11386). […] Absorbance measurements were obtained using the BMG Phera Star plate-reading spectrophotomer. […]
Recorded endpoint: pIC50
pIC50 (log units): -log10 of the concentration in mol/L.

Cc1cn(-c2cc(O[C@@H](C)C(F)(F)F)c(C(=O)Nc3c(F)cccc3Cl)cc2F)nc1[C@@H](C)O (relative stereo) [WO2022070069, Example 1] ... 9.32

Query: Query (molecule): Cc1cn(-c2cc(O[C@@H](C)C(F)(F)F)c(C(=O)Nc3c(F)cccc3Cl)cc2F)nc1C(C)(C)O [WO2022070069, Example 3] ; field requested: pIC50
Response: 9.30
